- System: EKVX
- Protocol description: NCI tumour cell line growth inhibition, 48 h
The source made the active and inactive calls. Cut-off read from the data, not from the text of the source: active = GI50 up to about 1.1 µM and inactive = higher.
Exercise: for every item that follows, state its recorded GI50.

May I ask what GI50 has been recorded for CCN(CC)CC(C(C)=O)C(c1ccccc1)c1c(O)c2ccccc2oc1=O (centres undefined) ?
> 100 µM (inactive)

Quick one: C[N+]1(C)CCCC(C#N)(c2ccccc2)CC1 (centres undefined)
> 100 µM (inactive)

Then this compound: CCCCC1C(=O)N(c2ccc(S(=O)(=O)Nc3ccccn3)cc2)N(c2ccc(O)c(C(=O)O)c2)C1=O (centres undefined)
> 100 µM (inactive)

// repeat for CCCC(C(=O)OC)C1N/C(=N/C#N)N(Cc2ccccc2)C1=O (centres undefined) and report
> 100 µM (inactive)

Note, next up: Oc1cc2c(cc1C(c1ccc3c(c1)OCO3)N1CCN(C(c3ccc4c(c3)OCO4)c3cc4c(cc3O)OCO4)CC1)OCO2 (centres undefined)
35.2 µM (inactive)

Same lookup for CCOC(=O)Cn1c(=O)c2nc(SC)sc2n(-c2ccc(C)cc2)c1=S , please.
74.3 µM (inactive)

Thanks! And CCOC(=O)/C=C(/C(=O)OCC)n1cc(C)c(=O)n(Cc2cnnn2COCCOC(C)=O)c1=O ?
14.1 µM (inactive)

Again, but for CCNC(=O)c1cc(/C=C/c2ccc([N+](=O)[O-])o2)nc2ccccc12
> 58.2 µM (inactive)

Another: O=C1CSC(C(/N=N/c2ccccc2)=C2Nc3ccccc3N2)=N1
31.1 µM (inactive)
